Tested on: rodent lifetime carcinogenesis bioassay, tumor incidence TD50
Assay: carcinogenic potency in animals, long-term in vivo studies, CPDB compilation (AID 1745844)
Details: rat; strain Fischer 344; females; in feed; site: clitoral gland; lesion: several types; types named in the paper; dosed 83 weeks; study length 86 weeks
value.kind: TD50

Look up TD50 for this compound: COc1ccc(N)cc1N
113 mg/kg/day

----------
System: rodent lifetime carcinogenesis bioassay, tumor incidence TD50
Test: carcinogenic potency in animals, long-term in vivo studies, CPDB compilation (AID 1745844)
Settings: mouse; strain B6C3F1; males; in feed; site: liver; lesion: hepatocellular adenoma + hepatocellular carcinoma; dosed 78 weeks; study length 98 weeks
value.kind: TD50

Look up TD50 for this compound: CCOc1ccc(NC(C)=O)cc1[N+](=O)[O-]
2270 mg/kg/day
